Target: human Vascular Endothelial Growth Factor Receptor 2 (VEGFR2), KDR (gene 3791) (UniProt P35968)
Sequence (P35968 whole entry, looked up): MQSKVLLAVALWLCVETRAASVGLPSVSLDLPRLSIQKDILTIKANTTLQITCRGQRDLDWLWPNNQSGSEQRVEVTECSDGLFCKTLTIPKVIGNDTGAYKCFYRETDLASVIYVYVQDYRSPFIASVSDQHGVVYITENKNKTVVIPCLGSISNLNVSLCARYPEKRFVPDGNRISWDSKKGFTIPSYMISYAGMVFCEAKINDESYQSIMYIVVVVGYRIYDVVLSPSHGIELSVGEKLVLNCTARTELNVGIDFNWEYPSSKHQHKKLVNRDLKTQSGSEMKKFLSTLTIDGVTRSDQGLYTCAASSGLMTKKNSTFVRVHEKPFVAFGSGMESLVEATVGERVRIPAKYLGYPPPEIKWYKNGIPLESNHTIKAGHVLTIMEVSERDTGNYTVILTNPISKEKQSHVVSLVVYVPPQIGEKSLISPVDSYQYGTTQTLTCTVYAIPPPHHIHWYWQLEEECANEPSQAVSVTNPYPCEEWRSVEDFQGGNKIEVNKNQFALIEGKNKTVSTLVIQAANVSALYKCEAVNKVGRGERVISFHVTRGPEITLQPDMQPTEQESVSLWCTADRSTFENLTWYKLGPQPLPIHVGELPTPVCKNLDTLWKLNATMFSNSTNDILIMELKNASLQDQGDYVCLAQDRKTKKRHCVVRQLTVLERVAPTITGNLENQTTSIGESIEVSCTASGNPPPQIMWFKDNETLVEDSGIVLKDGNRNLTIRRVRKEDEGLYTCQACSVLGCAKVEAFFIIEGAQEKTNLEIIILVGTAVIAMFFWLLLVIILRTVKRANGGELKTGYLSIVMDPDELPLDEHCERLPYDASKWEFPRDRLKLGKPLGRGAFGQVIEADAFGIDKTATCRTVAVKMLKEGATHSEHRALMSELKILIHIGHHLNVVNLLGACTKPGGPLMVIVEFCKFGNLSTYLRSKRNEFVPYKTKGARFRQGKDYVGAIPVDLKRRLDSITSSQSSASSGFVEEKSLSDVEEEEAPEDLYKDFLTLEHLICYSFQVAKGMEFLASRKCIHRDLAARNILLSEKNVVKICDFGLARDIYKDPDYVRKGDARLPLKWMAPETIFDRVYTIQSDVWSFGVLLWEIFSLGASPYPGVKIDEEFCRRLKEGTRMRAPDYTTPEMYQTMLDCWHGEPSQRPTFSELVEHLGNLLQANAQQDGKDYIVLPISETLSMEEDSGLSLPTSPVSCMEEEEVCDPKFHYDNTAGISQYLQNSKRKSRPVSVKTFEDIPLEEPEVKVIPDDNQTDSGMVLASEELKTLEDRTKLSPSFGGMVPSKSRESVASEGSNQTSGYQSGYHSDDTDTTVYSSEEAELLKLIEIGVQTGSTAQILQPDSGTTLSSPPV
Experiment: NVS_ENZ_hVEGFR2: NovaScreen (NVS) Enzymatic Assay for human Vascular Endothelial Growth Factor Receptor 2 (VEGFR2) (AID 2283230)
Results filed as inconclusive are left out. Activity calls are given as the source filed them. Rule for the calls: active = hit-call score of the fitted dose curve at least 0.9, where 1 is the maximum; inconclusive = response in the unintended direction; inactive = score below 0.9.
Endpoint name: outcome

Example results:
{"Compound": "CC(=O)[O][Hg][c]1ccccc1", "Data value": "inactive"}
{"Compound": "O=C1C2(Cl)C3(Cl)C4(Cl)C(Cl)(Cl)C5(Cl)C3(Cl)C1(Cl)C5(Cl)C24Cl (stereo unspecified)", "Data value": "inactive"}
{"Compound": "CCCCCCCCc1ccc(O)cc1", "Data value": "inactive"}
{"Compound": "CCC(C)(C)c1ccc(O)c(C(C)(C)CC)c1", "Data value": "inactive"}
{"Compound": "CC(C)(C)CC(C)(C)c1ccc(O)cc1", "Data value": "inactive"}

Entry `CC(C)(c1ccccc1)c1ccc(O)c(C(C)(C)c2ccccc2)c1` , outcome reported as inactive

====

Molecular target: Bile acid receptor (Homo sapiens) (UniProt Q96RI1)
Sequence (Q96RI1 whole entry, looked up): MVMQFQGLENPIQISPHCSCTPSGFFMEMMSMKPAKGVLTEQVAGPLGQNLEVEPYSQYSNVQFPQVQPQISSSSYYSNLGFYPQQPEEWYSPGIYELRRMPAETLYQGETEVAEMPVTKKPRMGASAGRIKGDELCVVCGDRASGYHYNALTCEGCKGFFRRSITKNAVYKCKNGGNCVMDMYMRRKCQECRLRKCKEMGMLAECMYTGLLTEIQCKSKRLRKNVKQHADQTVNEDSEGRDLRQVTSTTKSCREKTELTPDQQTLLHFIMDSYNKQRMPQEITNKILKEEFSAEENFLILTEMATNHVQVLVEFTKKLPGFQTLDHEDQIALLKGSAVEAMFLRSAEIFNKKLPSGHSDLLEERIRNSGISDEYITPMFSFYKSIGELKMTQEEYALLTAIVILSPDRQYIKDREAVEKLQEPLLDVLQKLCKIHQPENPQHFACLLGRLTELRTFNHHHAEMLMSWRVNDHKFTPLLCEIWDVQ
Experiment: OT_FXR_FXRSRC1_1440: Odyssey Thera (OT) 24-hour HEK293T Protein-Complementation Assay for Farnesoid X receptor/SRC-1 Co-activator (AID 2283384)
Inconclusive results are not listed. Calls of active or inactive are those of the source. Rule for the calls: active = hit-call score of the fitted dose curve at least 0.9, where 1 is the maximum; inconclusive = response in the unintended direction; inactive = score below 0.9.
Permitted responses: True (active), False (inactive)

What is the recorded call for this molecule in the test? CC1(C)CCC(Cc2ccc(Cl)cc2)C1(O)Cn1cncn1 (centres undefined)
True

Per the assay record, what outcome was assigned to `O=C1CCCN1` ?
False

Test call for this molecule, please: `O=C(Cc1ccccc1)c1ccccc1`
False

Recorded test call requested for CC(C)C1CCC(Cc2ccc(Cl)cc2)C1(O)Cn1cncn1 (centres undefined)
True

Hi, sorry to bother you, what did the test record for O=C1C2(Cl)C3(Cl)C4(Cl)C(Cl)(Cl)C5(Cl)C3(Cl)C1(Cl)C5(Cl)C24Cl (centres undefined) ?
True

Entry CCC1(c2ccc(N)cc2)CCC(=O)NC1=O (centres undefined) : call = ?
False

====

Read-out: Monokine induced gamma interferon (MIG), CXCL9 (gene 4283)
Assay: BSK_CASM3C_MIG: BioMAP Diversity Plus: CASM3C Assay for Monokine induced gamma interferon (MIG) Biomarker Activity (AID 2283048);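 note: MIG protein level measured by ELISA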
Conditions: primary human coronary artery smooth muscle cells; actives raise or lower the signal
Active and inactive are the calls of the source. Rule for the calls: active = hit-call score of the fitted dose curve at least 0.9, where 1 is the maximum; inactive = score below 0.9.
Hi! Could you answer with just one of these? active, inactive

{"Compound": "COC[C@H](C)N(C(=O)CCl)c1c(C)csc1C", "Class assignment": "inactive"}
{"Compound": "O=S(=O)(c1ccc(Cl)cc1)c1ccc(Cl)cc1", "Class assignment": "inactive"}
{"Compound": "O=C1C2(Cl)C3(Cl)C4(Cl)C(Cl)(Cl)C5(Cl)C3(Cl)C1(Cl)C5(Cl)C24Cl (centres undefined)", "Class assignment": "active"}

Record request — test call for `Nc1ccc(-c2ccc(N)c(Cl)c2)cc1Cl`
inactive

# fetch the recorded call for `Nc1ncc([N+](=O)[O-])s1` here
inactive

Kindly provide the recorded test outcome for the following compound: `O=C(O)CCC(F)(C(F)(F)F)C(F)(F)F`
inactive

Look up the recorded call for `COc1cc(-c2ccc(N)c(OC)c2)ccc1N` in this test.
inactive

Assay outcome for `O=c1[nH]c(=O)[nH]c(=O)[nH]1` : what was it?
inactive

Tell me the assay call for `Cn1sc(Cl)cc1=O` please.
inactive

# fetch the recorded call for CCC(=O)C(CC(C)N(C)C)(c1ccccc1)c1ccccc1 (centres undefined) here
inactive

Per the records of this test, what outcome belongs to `CC(C)c1ccc(CO)cc1` ?
inactive

Which result was noted for this compound in the test: `C[C@@H]1C[C@@H]([C@H](O)CC2CC(=O)NC(=O)C2)C(=O)[C@@H](C)C1`
active

For `CC1(C)Cc2cccc(O)c2O1` , which call appears in the assay record?
inactive

Give the logged outcome of this assay for the following compound: `CC(=O)[O][Hg][c]1ccccc1`
active

// outcome(item) with item = `O=Cc1cccc(Oc2ccccc2)c1`
inactive

I'd appreciate the recorded outcome for `OCc1ccco1` from this test.
inactive

Which result was noted for this compound in the test: `COP(=S)(OC)Oc1cc(Cl)c(Cl)cc1Cl`
inactive

Dear colleague, could you share the recorded outcome for `O=[N+]([O-])c1ccc2c3c(cccc13)CC2` when you have a moment?
inactive

What was the test verdict on `Cc1ccccc1N` ?
inactive

# fetch the recorded call for `C(=NC1CCCCC1)=NC1CCCCC1` here
active

Short answer needed: outcome of this test for `CCOP(=S)(OCC)SCSP(=S)(OCC)OCC` ?
inactive

Check the results log: what was the call for `ClCC(Cl)CCl` ?
inactive

For this compound, state the assay outcome: `ClC1=C(Cl)[C@]2(Cl)[C@H]3[C@H]([C@H]4C=C[C@H]3C4)[C@@]1(Cl)C2(Cl)Cl`
inactive

====

Target: Oxysterols receptor LXR-alpha (Homo sapiens)
Experiment: ATG_LXRa_TRANS: Attagene TRANS-FACTORIAL HepG2 Assay for human Liver X Receptor alpha (LXRa) (AID 2282980)
Settings: HepG2 Attagene TRANS reporter, LXRa transactivation
Results filed as inconclusive are left out. Calls of active or inactive are those of the source. The calls were made as follows: active = hit-call score of the fitted dose curve at least 0.9, where 1 is the maximum; inconclusive = response in the unintended direction; inactive = score below 0.9.
Endpoint name: outcome

The following compounds have reported results that may help.
{"Compound": "O=[N+]([O-])c1ccc(O)c([N+](=O)[O-])c1", "outcome": "inactive"}
{"Compound": "CCCCCCCCCl", "outcome": "inactive"}
{"Compound": "CC(C)CCCCCCOC(=O)c1ccccc1C(=O)OCCCCCCC(C)C", "outcome": "inactive"}
{"Compound": "CC(=O)C(Cl)C(=O)N(C)C (stereo unspecified)", "outcome": "inactive"}

Report outcome for each item below.
1. CC(C)(C)CC(C)(C)c1ccc(O)cc1
2. CCCCOCCOC(C)=O

inactive
inactive

====

Assay: BSK_SAg_SRB: Viability Assessment in the BioMAP Diversity Plus: SAg Assay (AID 2283096);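 note: cells read one day after compound addition; hits may be either gain or loss of signal compared with DMSO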
Conditions: primary human HUVEC with PBMC
Active and inactive are the calls of the source. The calls were made as follows: active = hit-call score of the fitted dose curve at least 0.9, where 1 is the maximum; inactive = score below 0.9.
# output must be one of YES = active, NO = inactive

Take a look at these entries with their results.
{"Molecule": "CC(=O)C(Cl)C(=O)N(C)C (stereo not drawn)", "Class assignment": "NO"}
{"Molecule": "CCC(=O)C(CC(C)N(C)C)(c1ccccc1)c1ccccc1 (stereo not drawn)", "Class assignment": "NO"}

Let us examine a further case.
Entry `CC(=O)[O][Hg][c]1ccccc1` : call = ?
YES

====

Assay: BSK_4H_SRB: Viability Assessment in the BioMAP Diversity Plus: 4H Assay (AID 2283027);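 note: cells exposed to compound for 24 h before staining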
Settings: primary human endothelial cells (HUVEC)
Activity calls are given as the source filed them. The calls were made as follows: active = hit-call score of the fitted dose curve at least 0.9, where 1 is the maximum; inactive = score below 0.9.
Outcomes you can answer with include only these: y = active, n = inactive

Please review the following examples before continuing.
{"Compound": "CCSC(C)CC1CC(=O)C(C(CC)=NOC/C=C/Cl)=C(O)C1 (centres undefined)", "Class assignment": "n"}
{"Compound": "CCOP(=S)(OCC)SCCS(=O)(=O)CC", "Class assignment": "n"}
{"Compound": "O=[N+]([O-])c1ccc2c3c(cccc13)CC2", "Class assignment": "n"}

Assay outcome for `CC(C)(C)CC(C)(C)c1ccc(O)cc1` : what was it?
y

Per the assay record, what outcome was assigned to CCCCC(CC)CO[N+](=O)[O-] (centres undefined) ?
y

====

Target: Heat shock factor protein 1 (Homo sapiens)
Experiment: ATG_HSE_CIS: Attagene CIS-FACTORIAL HepG2 Assay for human Heat Shock Transcription Factor 1 (HSE) (AID 2282953)
Settings: HepG2 HSE cis-reporter, Attagene RNA transcription; actives raise or lower the signal
Activity calls are given as the source filed them. How the source made its calls: active means hit-call score of the fitted dose curve at least 0.9, where 1 is the maximum; inactive means score below 0.9.
Give your call using only these classes: active, inactive

Look over these answered cases.
{"Compound": "[O-][Cl+2]([O-])O", "Class assignment": "inactive"}
{"Compound": "ClC1=C(Cl)[C@]2(Cl)[C@H]3[C@H]([C@H]4C=C[C@H]3C4)[C@@]1(Cl)C2(Cl)Cl", "Class assignment": "inactive"}
{"Compound": "N#CCc1ccc(Cl)cc1", "Class assignment": "inactive"}

Hi team, can someone confirm the assay call for Clc1ccc(COC(Cn2ccnc2)c2ccc(Cl)cc2Cl)cc1 (stereo not given) ?
inactive

Can you look up the reported call for ClC1(Cl)C2(Cl)C3(Cl)C4(Cl)C(Cl)(Cl)C5(Cl)C3(Cl)C1(Cl)C5(Cl)C24Cl (stereo not given) for me?
inactive

Which outcome was assigned to `Nc1ccc(Cl)cc1C(=O)c1ccccc1` in this test?
inactive

Lab log entry: CC(C)(c1ccc(OCC2CO2)cc1)c1ccc(OCC2CO2)cc1 (stereo not given) — outcome as called in the assay?
active

Please indicate how the test categorized CC(C#N)CCC#N (stereo not given) .
inactive

Check the results log: what was the call for `CCOC(=O)/C=C(C)/C=C/C[C@@H](C)CCCC(C)C` ?
active

Each compound tested received a call. Report the one for `C=CC#N` .
inactive
